# Lookup of reported EC50 keyed by entry
- Subject of test: hPPAR delta (Homo sapiens)
- Construct: expressed in transfected cells; host or cells: CV-1 cells
- Sequence (Q03181 211-439 limits assumed): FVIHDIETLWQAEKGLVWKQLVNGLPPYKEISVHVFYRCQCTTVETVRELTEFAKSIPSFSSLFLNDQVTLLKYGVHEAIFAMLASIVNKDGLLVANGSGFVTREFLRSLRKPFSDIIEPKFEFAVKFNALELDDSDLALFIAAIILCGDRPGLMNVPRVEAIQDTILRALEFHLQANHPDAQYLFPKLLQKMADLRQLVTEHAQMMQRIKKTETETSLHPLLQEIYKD
- Test summary: Transient transfection (transactivation) assay in CV-1 cells, GAL4-PPAR LBD chimera, SPAP reporter
- Assay type: cell-based
- Recorded conditions: read-out: EC50 μM HPPARδ

Worked examples, 5 compounds total:
Cc1cc(CNC(=O)c2cc(-c3ccc(C(C)(C)C)cc3)nn2CCN2CCOCC2)ccc1OC(C)(C)C(=O)O [Example 55] | > 25 µM
Cc1cc(CNC(=O)c2cc(-c3ccc(-c4ccccc4C)cc3)n(C)n2)ccc1OC(C)(C)C(=O)O [Example 31] | > 25 µM
CCCCc1ccc(-c2cc(C(=O)NCc3ccc(OC(C)(C)C(=O)O)c(C)c3)nn2C)cc1 [Example 29] | > 25 µM
Cc1cc(CNC(=O)c2cc(-c3ccc(-c4cccs4)cc3)n(C)n2)ccc1OC(C)(C)C(=O)O [Example 32] | > 25 µM
COc1cc(CNC(=O)c2cc(-c3ccc(C(C)C)cc3)nn2C)ccc1OC(C)(C)C(=O)O [Example 10] | > 10 µM

Please look at the following compound next.
## Input Any idea what its EC50 is? The compound is Cc1cc(CNC(=O)c2cc(-c3cccc(N4CCCC4)c3)n(C)n2)ccc1OC(C)(C)C(=O)O [Example 41]
## Output > 25 µM

###

- Subject of test: hPPAR alpha (Homo sapiens, UniProt Q07869)
- Construct: expressed in transfected cells; host or cells: CV-1 cells
- Sequence (Q07869 239-466 limits assumed): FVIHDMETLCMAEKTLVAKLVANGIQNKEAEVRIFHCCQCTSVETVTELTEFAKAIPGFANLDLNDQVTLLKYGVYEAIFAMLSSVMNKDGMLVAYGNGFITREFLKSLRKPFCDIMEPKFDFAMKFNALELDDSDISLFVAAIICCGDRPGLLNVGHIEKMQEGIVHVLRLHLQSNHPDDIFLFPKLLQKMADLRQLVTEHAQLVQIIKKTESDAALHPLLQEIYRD
- Test summary: Transient transfection (transactivation) assay in CV-1 cells, GAL4-PPAR LBD chimera, SPAP reporter
- Format: cell-based
- Recorded conditions: read-out: EC50 μM HPPARα
Quantity name: EC50 (µM)

Worked set:
Cn1nc(-c2ccc(C(C)(C)C)cc2)cc1C(=O)NCc1ccc(OC(C)(C)C(=O)O)cc1 [Example 16] | 0.163
CCCc1cc(CNC(=O)c2cc(-c3ccc(C(C)(C)C)cc3)nn2C)ccc1OC(C)(C)C(=O)O [Example 4] | 0.066
Cc1cc(CNC(=O)c2cc(-c3cccc(-c4ccccc4)c3)nn2C)ccc1OC(C)(C)C(=O)O [Example 28] | 0.589

(A) Cc1cc(CNC(=O)c2cc(-c3ccc(-c4ccco4)cc3)n(C)n2)ccc1OC(C)(C)C(=O)O [Example 35]
(B) Cc1ccc(CNC(=O)c2cc(-c3ccc(C(C)(C)C)cc3)nn2CCc2ccccc2)cc1OC(C)(C)C(=O)O [Example 51]
## Input Of the two listed items, which has the higher EC50? First: A Second: B Kindly give the label for the entry you pick.
## Output B

###

- Subject of test: hPPAR delta (Homo sapiens)
- Construct: expressed in transfected cells; host or cells: CV-1 cells
- Test summary: Transient transfection (transactivation) assay in CV-1 cells, GAL4-PPAR LBD chimera, SPAP reporter
- Type: cell-based
- Recorded conditions: read-out: EC50 μM HPPARδ
Quantity name: EC50

Cc1cc(CNC(=O)c2cc(-c3ccc(-c4ccco4)cc3)n(C)n2)ccc1OC(C)(C)C(=O)O | > 25 µM
CCn1nc(-c2ccc(C(C)(C)C)cc2)cc1C(=O)NCc1ccc(OC(C)(C)C(=O)O)c(OC)c1 | > 10 µM
COCCn1nc(C(=O)NCc2ccc(OC(C)(C)C(=O)O)c(C)c2)cc1-c1ccc(C(C)(C)C)cc1 | > 25 µM
COc1cc(CNC(=O)c2cc(-c3ccc(C(C)(C)C)cc3)nn2C)ccc1OC(C)(C)C(=O)O | > 10 µM
COc1cc(CNC(=O)c2cc(-c3ccc(CC(C)C)cc3)n(C)n2)ccc1OC(C)(C)C(=O)O | > 10 µM

## Input EC50 for C=CCc1cc(CNC(=O)c2cc(-c3ccc(C(C)(C)C)cc3)nn2C)ccc1OC(C)(C)C(=O)O ?
## Output > 10 µM

## Input Query: EC50; subject: C=CCn1nc(C(=O)NCc2ccc(OC(C)(C)C(=O)O)c(C)c2)cc1-c1ccc(C(C)(C)C)cc1
## Output > 25 µM

## Input What measured EC50 goes with Cc1cc(CNC(=O)c2cc(-c3ccc(CC(C)C)cc3)nn2C)ccc1OC(C)(C)C(=O)O ?
## Output 1.07 µM

## Input Which measured EC50 value corresponds to Cc1cc(CNC(=O)c2cc(-c3ccc(C(C)(C)C)cc3)nn2Cc2ccccc2)ccc1OC(C)(C)C(=O)O ?
## Output 2.42 µM

## Input Which EC50 value belongs to Cc1cc(CNC(=O)c2cc(-c3ccc(OCc4ccccc4)cc3)nn2C)ccc1OC(C)(C)C(=O)O ?
## Output > 8 µM

## Input Record request: EC50 value, item C=CCOc1ccc(-c2cc(C(=O)NCc3ccc(OC(C)(C)C(=O)O)c(C)c3)n(C)n2)cc1
## Output > 25 µM

## Input Sample Cc1cc(CNC(=O)c2cc(-c3ccc(C(C)(C)C)cc3)nn2C)ccc1OC(C)(C)C(=O)O — what was its EC50?
## Output 2.17 µM

## Input Consider the compound shown here: Cc1cc(CNC(=O)c2cc(-c3ccc(C(C)(C)C)cc3)n(Cc3ccccc3)n2)ccc1OC(C)(C)C(=O)O What is its recorded EC50?
## Output > 25 µM
